- Tested on: Escherichia coli TOP10
- protocol-text: shrunken log2 fold change of peptide-encoding DNA abundance (4.5 h post-induction vs induction); higher = less antimicrobial activity (less host growth inhibition)
- condition-summary: time post-induction: 4.5 h; library: site-saturation at positions 5, 18, 19, 20
Decide by shrunken log2 fold change: equal to or exceeding -0.07 means YES, less means NO.

# count of solved cases: 5
1) RRIRVRPPRLPRPRPRPKISPRP ... NO
2) RRIRGRPPRLPRPRPRPPWHPRP ... YES
3) RRIRFRPPRLPRPRPRPCYMPRP ... YES
4) RRIRARPPRLPRPRPRPNKFPRP ... NO
5) RRIRRRPPRLPRPRPRPYGFPRP ... NO

Tell me whether shrunken log2 fold change is at least -0.07 here: "RRIRWRPPRLPRPRPRPNEHPRP"
NO

Tell me whether shrunken log2 fold change is at least -0.07 here: "RRIRARPPRLPRPRPRPAIQPRP"
YES

Tell me whether shrunken log2 fold change is at least -0.07 here: "RRIRHRPPRLPRPRPRPQYNPRP"
NO

----------
- Test system: Escherichia coli TOP10
- protocol-text: shrunken log2 fold change of peptide-encoding DNA abundance (4.5 h post-induction vs induction); higher = less antimicrobial activity (less host growth inhibition)
- condition-summary: time post-induction: 4.5 h; library: site-saturation at positions 5, 18, 19, 20
Hi there, I'd appreciate the recorded shrunken log2 fold change for every entry that follows.
Numbers only.

I would be grateful if you could provide shrunken log2 fold change for each of the following entries.
1. RRIRGRPPRLPRPRPRPESHPRP
2. RRIRARPPRLPRPRPRPQPVPRP

1. 0.124
2. 0.292

----------
Hi there, I'd appreciate the recorded shrunken log2 fold change for every entry that follows.
- System: Escherichia coli TOP10
- protocol-text: shrunken log2 fold change of peptide-encoding DNA abundance (4.5 h post-induction vs induction); higher = less antimicrobial activity (less host growth inhibition)
- condition-summary: time post-induction: 4.5 h; library: site-saturation at positions 5, 18, 19, 20

Here is how some sequences turned out for shrunken log2 fold change.
1. RRIRPRPPRLPRPRPRPDEEPRP ... 0.0245
2. RRIRIRPPRLPRPRPRPSTRPRP ... -0.54
3. RRIRVRPPRLPRPRPRPWGCPRP ... 0.076
4. RRIRARPPRLPRPRPRPALTPRP ... 0.642
5. RRIRQRPPRLPRPRPRPKKFPRP ... -0.097

I would be grateful if you could provide shrunken log2 fold change for each of the following entries.
1. RRIRIRPPRLPRPRPRPAPYPRP
2. RRIRPRPPRLPRPRPRPRAKPRP
3. RRIRRRPPRLPRPRPRPIEDPRP
4. RRIRARPPRLPRPRPRPVAVPRP
5. RRIRLRPPRLPRPRPRPNMWPRP
6. RRIRIRPPRLPRPRPRPYMDPRP
7. RRIRMRPPRLPRPRPRPVLDPRP

1. -0.406
2. 0.692
3. -0.089
4. 0.445
5. -0.235
6. -0.315
7. 0.331

I would be grateful if you could provide shrunken log2 fold change for each of the following entries.
1. RRIRPRPPRLPRPRPRPCQYPRP
2. RRIRDRPPRLPRPRPRPARVPRP
3. RRIRLRPPRLPRPRPRPSEKPRP

1. 0.0594
2. 0.948
3. -0.0219

I would be grateful if you could provide shrunken log2 fold change for each of the following entries.
1. RRIRLRPPRLPRPRPRPPAVPRP
2. RRIRERPPRLPRPRPRPRKCPRP
3. RRIRWRPPRLPRPRPRPTFGPRP
4. RRIRQRPPRLPRPRPRPESIPRP
5. RRIRKRPPRLPRPRPRPRDSPRP
6. RRIRKRPPRLPRPRPRPWNSPRP
7. RRIRMRPPRLPRPRPRPWWHPRP
8. RRIRHRPPRLPRPRPRPLRTPRP

0.341
-0.0265
-0.0806
0.0598
0.262
0.0199
0.158
1.02

I would be grateful if you could provide shrunken log2 fold change for each of the following entries.
1. RRIRLRPPRLPRPRPRPVIKPRP
2. RRIRMRPPRLPRPRPRPRCTPRP
3. RRIRLRPPRLPRPRPRPEYFPRP
4. RRIRQRPPRLPRPRPRPATKPRP
5. RRIRPRPPRLPRPRPRPWHLPRP
6. RRIRRRPPRLPRPRPRPDFKPRP

[-0.111, 0.6, -0.0957, 0.154, -0.233, 0.151]

----------
- System: Escherichia coli TOP10
- protocol-text: shrunken log2 fold change of peptide-encoding DNA abundance (4.5 h post-induction vs induction); higher = less antimicrobial activity (less host growth inhibition)
- condition-summary: time post-induction: 4.5 h; library: site-saturation at positions 5, 18, 19, 20
readout: shrunken log2 fold change
Numbers only.

1. RRIRDRPPRLPRPRPRPPMEPRP ... -0.0667
2. RRIRSRPPRLPRPRPRPANDPRP ... 0.0254
3. RRIRNRPPRLPRPRPRPVMLPRP ... -0.171

I would be grateful if you could provide shrunken log2 fold change for each of the following entries.
1. RRIRRRPPRLPRPRPRPFTRPRP
2. RRIRDRPPRLPRPRPRPGYMPRP

[-0.0292, -0.649]

I would be grateful if you could provide shrunken log2 fold change for each of the following entries.
1. RRIRFRPPRLPRPRPRPTNEPRP
2. RRIRHRPPRLPRPRPRPNNWPRP
3. RRIRCRPPRLPRPRPRPMSNPRP

1. -0.264
2. -0.269
3. -0.64

----------
- Tested on: Escherichia coli TOP10
- protocol-text: shrunken log2 fold change of peptide-encoding DNA abundance (4.5 h post-induction vs induction); higher = less antimicrobial activity (less host growth inhibition)
- condition-summary: time post-induction: 4.5 h; library: site-saturation at positions 5, 18, 19, 20
readout: shrunken log2 fold change
Numbers only.

Here is how some sequences turned out for shrunken log2 fold change.
1. RRIRWRPPRLPRPRPRPAGPPRP ... 0.235
2. RRIRKRPPRLPRPRPRPEHMPRP ... 0.829
3. RRIRVRPPRLPRPRPRPYNVPRP ... -0.0185

I would be grateful if you could provide shrunken log2 fold change for each of the following entries.
1. RRIRRRPPRLPRPRPRPCFHPRP
2. RRIRLRPPRLPRPRPRPWMGPRP
3. RRIRSRPPRLPRPRPRPFARPRP
4. RRIRKRPPRLPRPRPRPWQMPRP
5. RRIRQRPPRLPRPRPRPPGYPRP
6. RRIRWRPPRLPRPRPRPKLWPRP

1. -0.00606
2. -0.363
3. -0.172
4. 0.0764
5. 0.225
6. 1.06

I would be grateful if you could provide shrunken log2 fold change for each of the following entries.
1. RRIRVRPPRLPRPRPRPDCYPRP
2. RRIRERPPRLPRPRPRPPEAPRP
3. RRIRLRPPRLPRPRPRPDIMPRP
4. RRIRIRPPRLPRPRPRPCDHPRP
5. RRIRYRPPRLPRPRPRPSLVPRP
6. RRIRKRPPRLPRPRPRPKMLPRP
7. RRIRNRPPRLPRPRPRPPISPRP

[-0.15, 0.192, -0.0927, -0.752, -0.291, 0.185, 0.129]

----------
- System: Escherichia coli TOP10;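 also: peptides expressed intracellularly from a pBAD plasmid library in pooled LB shake-flask culture, induced with 0.3% L-arabinose, DNA abundance read by NGS, three biological replicates, DESeq2 with apeglm shrinkage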
- protocol-text: shrunken log2 fold change of peptide-encoding DNA abundance (4.5 h post-induction vs induction); higher = less antimicrobial activity (less host growth inhibition)
- condition-summary: time post-induction: 4.5 h; library: site-saturation at positions 5, 18, 19, 20
Decide by shrunken log2 fold change: equal to or exceeding 0.02 means 1, less means -1.

1) RRIRNRPPRLPRPRPRPRGKPRP ... 1
2) RRIRARPPRLPRPRPRPLYWPRP ... -1
3) RRIRKRPPRLPRPRPRPTGGPRP ... 1
4) RRIRARPPRLPRPRPRPELCPRP ... 1
5) RRIRGRPPRLPRPRPRPPSQPRP ... 1

Tell me whether shrunken log2 fold change is at least 0.02 here: "RRIRCRPPRLPRPRPRPCAHPRP"
1

Tell me whether shrunken log2 fold change is at least 0.02 here: "RRIRMRPPRLPRPRPRPCQAPRP"
1

Tell me whether shrunken log2 fold change is at least 0.02 here: "RRIRIRPPRLPRPRPRPMQEPRP"
-1

Tell me whether shrunken log2 fold change is at least 0.02 here: "RRIRTRPPRLPRPRPRPQSEPRP"
-1

Tell me whether shrunken log2 fold change is at least 0.02 here: "RRIRYRPPRLPRPRPRPKHPPRP"
-1

Tell me whether shrunken log2 fold change is at least 0.02 here: "RRIRTRPPRLPRPRPRPGPFPRP"
1

Tell me whether shrunken log2 fold change is at least 0.02 here: "RRIRQRPPRLPRPRPRPYAIPRP"
-1

Tell me whether shrunken log2 fold change is at least 0.02 here: "RRIRFRPPRLPRPRPRPQLQPRP"
1

Tell me whether shrunken log2 fold change is at least 0.02 here: "RRIRIRPPRLPRPRPRPEDLPRP"
-1

Tell me whether shrunken log2 fold change is at least 0.02 here: "RRIRIRPPRLPRPRPRPWRHPRP"
-1

Where do the numbers come from? From the supplement of paper PMC9112550.
